- Tested on: HCC1937
- protocolText: relative cell viability, compound + RSL3, vs DMSO (fraction of DMSO control); higher = less growth inhibition
- testParameters: 72 h
testReadout: relative cell viability

CC(C)(Oc1ccc(C(=O)c2ccc(Cl)cc2)cc1)C(=O)O [Fenofibric acid] + COC(=O)c1ccc([C@H]2c3[nH]c4ccccc4c3C[C@H](C(=O)OC)N2C(=O)CCl)cc1
0.536
C[C@H](CCCC(C)(C)O)[C@H]1CC[C@H]2[C@@H]3CC=C4C[C@@H](O)CC[C@]4(C)[C@H]3CC[C@]12C [25-Hydroxycholesterol] + COC(=O)c1ccc([C@H]2c3[nH]c4ccccc4c3C[C@H](C(=O)OC)N2C(=O)CCl)cc1
0.572

###

- Tested on: HCC1937
- protocolText: relative cell viability, compound alone, vs DMSO (fraction of DMSO control); higher = less growth inhibition
- testParameters: 72 h
Structures can show the parent of a compound that is named as a salt.
testReadout: relative cell viability

CS(=O)(=O)c1ccc(-c2nnc(/C=C/c3nnc(-c4ccc(C#N)cc4)o3)n2-c2ccccc2Cl)nc1
1.07
CC(C)c1nc(N(C)S(C)(=O)=O)nc(-c2ccc(F)cc2)c1/C=C/[C@@H](O)C[C@@H](O)CC(=O)O [Rosuvastatin]
0.633
CC(C)(Oc1ccc(C(=O)c2ccc(Cl)cc2)cc1)C(=O)O [Fenofibric acid]
0.686
O=C(Nc1cnccc1Cl)N1CCN(Cc2ccc3c(c2)OC(F)(F)O3)CC1
0.747
CN(C)CCOC(=O)COc1ccc(Cl)cc1 [Meclofenoxate hydrochloride]
0.782
CCCCCCCCCCCC1=C(O)C(=O)C=C(O)C1=O [Embelin]
1.08
C=C(C)[C@@H]1CC[C@]2(CO)CC[C@]3(C)[C@H](CC[C@@H]4[C@@]5(C)CC[C@H](O)C(C)(C)[C@@H]5CC[C@]43C)[C@@H]12 [Betulin]
0.886
COc1ccc(/C=C/c2cc(O)cc(O[C@@H]3O[C@H](CO)[C@@H](O)[C@H](O)[C@H]3O)c2)cc1 [Deoxyrhapontin]
0.932
CC1(C)C[C@H]2C3=CC[C@@H]4[C@@]5(C)CC[C@H](O)[C@@](C)(CO)[C@@H]5CC[C@@]4(C)[C@]3(C)C[C@H](O)[C@@]2(CO)[C@@H](O)[C@@H]1O [Gymnemagenin]
1.13
Cc1c2c(=O)n(-c3ccccc3Cl)[nH]c2cc(=O)n1Cc1ccccn1
0.973
COc1ccc(-c2c[nH]c3nccc(-c4ccsc4)c23)c(OC)c1
0.993
Cc1ccc(Oc2nc3cc(-c4ccc(-c5ccccc5)cc4)c(Cl)cc3[nH]2)cc1C(=O)O
0.95
CC(C)=CCC[C@](C)(O)[C@H]1CC[C@]2(C)[C@@H]1[C@H](O)C[C@@H]1[C@@]3(C)CC[C@H](O)C(C)(C)[C@@H]3[C@@H](O)C[C@]12C [(20S)-Protopanaxatriol]
1.24
CCOC(=O)c1c(NC(=O)CN2CCN(C(=O)c3ccco3)CC2)sc2c1CCC2
0.857
CC(C)[C@H]1CC[C@H](C(=O)N[C@H](Cc2ccccc2)C(=O)O)CC1 [Nateglinide]
0.682
O=C(CCCCCCCC(=O)NCCO)NCCO [Adelmidrol]
1.16

###

- Test system: MDA-MB-231
- protocolText: relative cell viability, compound + RSL3, vs DMSO (fraction of DMSO control); higher = less growth inhibition
- testParameters: 72 h
testReadout: relative cell viability

CCCCCCCCCCC[C@@H](C[C@@H]1OC(=O)[C@H]1CCCCCC)OC(=O)[C@H](CC(C)C)NC=O [Orlistat] + COC(=O)c1ccc([C@H]2c3[nH]c4ccccc4c3C[C@H](C(=O)OC)N2C(=O)CCl)cc1
0.167
O=C1c2cccc(O)c2C(=O)c2c(O)cccc21 [Antrapurol] + COC(=O)c1ccc([C@H]2c3[nH]c4ccccc4c3C[C@H](C(=O)OC)N2C(=O)CCl)cc1
0.537
CC(C)(Oc1ccc(C2CC2(Cl)Cl)cc1)C(=O)O (stereo not drawn) [Ciprofibrate] + COC(=O)c1ccc([C@H]2c3[nH]c4ccccc4c3C[C@H](C(=O)OC)N2C(=O)CCl)cc1
0.706

Hello, the source for this data is the supplement of paper PMC9492666, in case you need it.
